Below, each of the binders is paired with its reported Kd value.
# system tested: MAX H28R (Homo sapiens, UniProt P61244 1-160, H28R)
# Sequence (P61244 whole entry H28R): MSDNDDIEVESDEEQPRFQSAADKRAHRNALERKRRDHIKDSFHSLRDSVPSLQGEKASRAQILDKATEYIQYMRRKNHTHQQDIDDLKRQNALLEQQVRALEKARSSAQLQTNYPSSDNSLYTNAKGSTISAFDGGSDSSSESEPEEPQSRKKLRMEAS
# assay name: fluorescence polarization

As a guide, the following entries are already answered.
{"columns": ["binder", "result"],
 "data": [
  ["E-box 12-mer C/5fC (dsDNA, 5fC at position 6 of strand 2) DNA 1: TGCCACGTGACC DNA 2: GGTCACGTGGCA", "< 5 nM"],
  ["E-box 12-mer C/C (dsDNA) DNA 1: TGCCACGTGACC DNA 2: GGTCACGTGGCA", "< 5 nM"],
  ["E-box 12-mer C/5caC (dsDNA, 5caC at position 6 of strand 2) DNA 1: TGCCACGTGACC DNA 2: GGTCACGTGGCA", "< 5 nM"]
]}

Lab note: measured Kd of E-box 12-mer C/5hmC (dsDNA, 5hmC at position 6 of strand 2) DNA 1: TGCCACGTGACC DNA 2: GGTCACGTGGCA was < 5 nM

Lab note: measured Kd of E-box 12-mer C/5mC (dsDNA, 5mC at position 6 of strand 2) DNA 1: TGCCACGTGACC DNA 2: GGTCACGTGGCA was < 5 nM
